assayed_system: T1, human CD47 overexpressed on CHO cells (human, UniProt Q08722 19-292)
T1 construct: CHO cells transfected with pCHO1.0 carrying human CD47 cDNA (Sino Biological); also called hCD47; CHO-hCD47 cells
test_method_notes: flow cytometry on CHO-hCD47 cells, PE anti-human IgG, MFI curve
Exercise: state measured EC50 for each of the binders provided.
One number for each entry, in nM.

INSERT INTO measurements (binder, number) VALUES
  ('ADI-26660 (antibody, human IgG1, kappa, V domains shown, Full-length IgG1 kappa expressed in yeast, purified by Protein A) VH: QVQLQESGPGLVKPSETLSLTCTVSGGSISSYYWSWIRQPPGKGLEWIGSIYYSGSTNYNPSLKSRVTISVDTSKNQFSLKLSSVTAADTAVYYCARKQKHFDIWGQGTMVTVSS VL: DIQMTQSPSSVSASVGDRVTITCRASQGISSWLAWYQQKPGKAPKLLIYAASSLQSGVPSRFSGSGSGTDFTLTISSLQPEDFATYYCQQVNHHPWTFGGGTKVEIKR', 5.74),
  ('ADI-29338 (antibody, human IgG1, kappa, V domains shown, Full-length IgG1 kappa expressed in yeast, purified by Protein A) VH: QVQLQESGPGLVKPSETLSLTCTVSGGSISSYYWSWIRQPPGKGLEWIGTIYYSGSTRYNPSLKSRVTISVDTSKNQFSLKLSSVTAADTAVYYCARGKSAFDPWGQGTLVTVSS VL: DIQMTQSPSSVSASVGDRVTITCRASQGISRWLAWYQQKPGKAPKLLIYAASSLQSGVPSRFSGSGSGTDFTLTISSLQPEDFATYYCQQADLHPPLTFGGGTKVEIKR', 1.57),
  ('ADI-29345 (antibody, human IgG1, kappa, V domains shown, Full-length IgG1 kappa expressed in yeast, purified by Protein A) VH: QVQLQESGPGLVKPSETLSLTCTVSGGSISHYYWSWIRQPPGKGLEWIGYIYYSGVTTYNPSLKSRVTISVDTSKNQFSLKLSSVTAADTAVYYCARGKTGSTAWGQGTLVTVSS VL: DIQMTQSPSSVSASVGDRVTITCRASQGISRWLAWYQQKPGKAPKLLIYAASSLQSGVPSRFSGSGSGTDFTLTISSLQPEDFATYYCQQTVSFPITFGGGTKVEIKR', 1.5);

Lookup: Look at this binder and give its reported EC50. ADI-29342 (antibody, human IgG1, kappa, V domains shown, Full-length IgG1 kappa expressed in yeast, purified by Protein A) VH: QVQLQESGPGLVKPSETLSLTCTVSGGSIMHYYWSWIRQPPGKGLEWIGYIYYSGSTNYNPSLKSRVTISVDTSKNQFSLKLSSVTAADTAVYYCARGKTGSAAWGQGTLVTVSS VL: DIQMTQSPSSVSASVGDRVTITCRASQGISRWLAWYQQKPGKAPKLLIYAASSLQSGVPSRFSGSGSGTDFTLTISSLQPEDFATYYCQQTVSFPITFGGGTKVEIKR
Found: 2.74

Hey, just so you know, these numbers are from patent US20200377593A1.
